Test system: leukemia L1210 cells
Experiment: anticancer activity test against mouse leukemia L1210 cells implanted in BDF1 mice
Type: in vivo
Settings: 60 mg/kg, intra-peritoneal, days 1, 5 and 9

COMPOUND: O=C1[O][Pt-2]2([NH2+]C3CCCCC3[NH2+]2)[O]C(=O)C1NP1(NC2C(=O)[O][Pt-2]3([NH2+]C4CCCCC4[NH2+]3)[O]C2=O)=NP(NC2C(=O)[O][Pt-2]3([NH2+]C4CCCCC4[NH2+]3)[O]C2=O)(NC2C(=O)[O][Pt-2]3([NH2+]C4CCCCC4[NH2+]3)[O]C2=O)=NP(NC2C(=O)[O][Pt-2]3([NH2+]C4CCCCC4[NH2+]3)[O]C2=O)(NC2C(=O)[O][Pt-2]3([NH2+]C4CCCCC4[NH2+]3)[O]C2=O)=N1 (racemic) [Example 16, [NP(Am·Pt(dach)2]3]
SYSTEM: leukemia L1210 cells
Increased life span (ILS): Toxic

Reference source for all entries: patent US6221906A
